Assay: NCI Yeast Anticancer Drug Screen. Data for the sgs1 mgt1 strain (AID 161);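 also: 0% = growth of cultures given vehicle only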
Conditions: S. cerevisiae sgs1 mgt1 strain, at 5.0 µM (retest, dose inferred, filed as 0.5), active compounds read high
Description: Growth inhibition of yeast strains with defined genetic alterations is measured as a screen for potential anti-cancer activity. Selected strains with alterations in DNA damage repair or cell cycle control were exposed to compounds and growth inhibition was measured relative to vehicle treated controls. The strain used in this assay is sgs1 mgt1
About 79,000 compounds went through this panel and 15% of them were active in at least one assay; those are over-represented in the sample as a whole. Activity calls are given as the source filed them. Rule as the data show it: active = growth inhibition above about 70%; inactive = the rest.
Listing: growth inhibition of selected molecules

What does the record list as growth inhibition for CCCCCCCCC(=O)NCCN(CCN)C(=O)CCCCCCCC ?
-33% (inactive)

----------
Experiment: NCI Yeast Anticancer Drug Screen. Data for the bub3 strain (AID 167)
Settings: S. cerevisiae bub3 mutant strain, at 5.0 µM (retest, dose inferred, filed as 0.5), active compounds read high
About 79,000 compounds went through this panel and 15% of them were active in at least one assay; those are over-represented in the sample as a whole.
Readout Label: growth inhibition (%)
Answer with a number only, understood to be in %.

# Compound, Readout Label, Val
data = [
    ("Cc1ccc(S(=O)(=O)n2c3c(c4ccccc42)CCN2C(=O)C(S(=O)(=O)c4ccccc4)=CCC32)cc1 (stereo not given)", "growth inhibition", 29),
]

Consider the compound O=c1[nH]ccc(CNC23CC4CC(CC(C4)C2)C3)c1O and give its measured growth inhibition.
7

Recorded growth inhibition of Oc1c(Cl)cc(Br)cc1Cl , please.
13

For CC(C)(CN1CCCCC1)C(=O)CC(SCCS(=O)(=O)O)c1ccc(Cl)cc1 (stereo not given) , what is its reported growth inhibition?
-13

Consider the compound shown here: Cc1ccc(S(=O)(=O)NC(=O)CC2CCCCC2)cc1 What is its recorded growth inhibition?
17

Item under review: CS(=O)(=O)OCCCN(CCCOS(C)(=O)=O)c1ccc(C=Nc2ccc(-c3csc(COc4ccc(Br)cc4Br)n3)cc2)cc1 . Reported growth inhibition?
5

Bench note: what growth inhibition did CCN(CC)CCOC(=O)C1C(c2ccccc2)C1(c1ccccc1)c1ccccc1 (stereo not given) show?
8

Request the reported growth inhibition associated with Clc1ccc2[nH]c(-c3ccccc3)c(-c3ccccn3)c2c1
93

Given the entry CCOC(=O)c1c(C)[nH]c(C(c2ccccc2)c2[nH]c(C)c(C(=O)OCC)c2C)c1C , report its measured growth inhibition.
-5

Look up growth inhibition for this compound: CCCCCCCCCCCCCCNCc1ccccc1
99

----------
Assay: NCI Yeast Anticancer Drug Screen. Data for the mec2-1 strain (AID 157)
Settings: S. cerevisiae mec2-1 strain, at 50.0 µM, active compounds read high
This is part of a sample that, as a whole, favours compounds with a hit. Of some 79,000 tested, about 15% had one in any assay. Activity calls are given as the source filed them. No stated cut-off is given here; in the data, active means growth inhibition above about 70%; inactive means the rest.
Readout Label: growth inhibition

Below, 5 compounds whose answers are already recorded.
# Compound, growth inhibition
rows = [
    ("CC(C)(C)CC(C)(C)c1ccc(O)c(O)c1", "94.2% (active)"),
    ("Nc1c(F)cccc1F", "11.6% (inactive)"),
    ("OC1(C2c3ccccc3-c3ccccc32)c2ccccc2-c2ccccc21", "80.7% (active)"),
    ("CN(C)CC1Cc2ccsc2C1=O (stereo not drawn)", "99.5% (active)"),
    ("COc1cc2oc(-c3ccc(O)cc3O)c(CC=C(C)C)c(=O)c2c(O)c1/C=C/C(C)C", "90.7% (active)"),
]

Requested read-out: growth inhibition. Entry: CC(C)=Cc1cc2c(cc1O)CCC1C2CC[C@@]2(C)C1CC[C@@H]2O (stereo partly drawn)
60.1% (inactive)

What does the data say about its growth inhibition? Entry: c1ccc(CN2CCc3[nH]c4ccccc4c3C2)cc1
17.1% (inactive)

Name the recorded growth inhibition for CN(C=O)c1ccc2c(c1)Cc1ccccc1-2 .
24.8% (inactive)

Query (compound): CC(=O)OCC1OC(OC(C)=O)C(On2nnc3c(-c4ccccc4)c(C)nn32)C(OC(C)=O)C1OC(C)=O (stereo not drawn) ; field requested: growth inhibition
35.8% (inactive)

What does the data say about its growth inhibition? Entry: N#CSCC(=O)c1ccc(Cl)cc1
91% (active)

For Cc1ccc2nc(C[n+]3ccc4ccccc4c3)ccc2c1 , what is its reported growth inhibition?
50.2% (inactive)

Please report the recorded growth inhibition for CSc1ccc2c(c1)S[S@@](=O)N2 .
1.45% (inactive)

Consider the compound shown here: CCOc1ccccc1N1C(=O)C=CC1=O What is its recorded growth inhibition?
93.6% (active)

Reported growth inhibition, compound Cc1c2cc(Cl)ccc2cc2c1ccc1ccccc12 : ____
98.8% (active)

What does the record list as growth inhibition for O=C1Nc2ccccc2/C1=C/c1ccc(Cl)c(Cl)c1 ?
80.3% (active)

Fill blank: measured growth inhibition of the compound O=C(Nc1c(Cl)cccc1Cl)OCCOc1ccc(Cl)cc1Cl is ____.
90.8% (active)

Param item = O=C(NCCCNCCNC(=O)c1cc(-c2ccccc2)nc2ccccc12)c1cc(-c2ccccc2)nc2ccccc12 ; retrieve measured growth inhibition.
99.2% (active)

Data request, read-out growth inhibition, for Fc1ccc(CN2COc3c(cc(Cl)c4cccnc34)C2)cc1
99.6% (active)

Consider the compound shown here: CC1CC[N-]CC1.CC1CC[N-]CC1.CC1CC[N-]CC1.CC1CC[N-]CC1.CS(C)=O.CS(C)=O.[Cl-].[Cl-].[Cl-].[Cl-].[Pt+4].[Rh+3] What is its recorded growth inhibition?
96.8% (active)

Looking for the measured growth inhibition of CS(=O)(=O)OCCCN(CCCOS(C)(=O)=O)c1ccc(C=Nc2ccc(-c3csc(COc4ccc(Br)cc4Br)n3)cc2)cc1 , can you help?
92.8% (active)

Item Oc1ccccc1/C=N/NC(=S)NC12CC3CC(CC(C3)C1)C2 has what recorded growth inhibition?
29.6% (inactive)

# lookup: growth inhibition of COc1ccc(CC2C(=O)NC(C)C(=O)N(C)C3Cc4ccc(cc4)Oc4cc(ccc4O)CC(C(=O)NC(C)C(=O)NC(C)C(=O)N2C)N(C)C3=O)cc1 (stereo not drawn)
39.8% (inactive)

Please give the measured growth inhibition for this compound: C/C(CCSCc1ccccc1)=N/NC(N)=S
55.9% (inactive)

----------
Test: NCI Yeast Anticancer Drug Screen. Data for the bub3 strain (AID 167)
Conditions: S. cerevisiae bub3 mutant strain, at 50.0 µM
This is part of a sample that, as a whole, favours compounds with a hit. Of some 79,000 tested, about 15% had one in any assay. Active and inactive are the calls of the source. Cut-off read from the data, not from the text of the source: active = growth inhibition above about 70%; inactive = the rest.
Field 'call' accepts yes for active, no for inactive

# Compound, Label Value
records = [
    ("Cn1c(C(C)(C)OC(=O)Oc2ccccc2)cnc1[N+](=O)[O-]", "no"),
    ("CC(=O)c1cc(-c2ccccc2)nc2ccccc12", "yes"),
    ("COc1ccc(OC)c2c(C(=O)O)c(C(C)c3ccccc3)ccc12 (stereo unspecified)", "yes"),
    ("CC(C)=Cc1cc2c(cc1O)CCC1C2CC[C@@]2(C)C1CC[C@@H]2O (stereo partly specified)", "no"),
    ("CN(C)CCC1(C2=CCCC2)CC/C(=C\\c2ccccc2Cl)C1=O (stereo unspecified)", "no"),
]

Consider the additional compound presented here.
Hi, do you know how Cc1ccc(C)c(N2C(=O)C(=O)C(c3nc4ccccc4o3)/C(=N\NC(=O)c3ccccc3O)C2=O)c1 (stereo unspecified) came out in this test?
no

----------
Test: NCI Yeast Anticancer Drug Screen. Data for the mlh1 rad18 strain (AID 175)
Conditions: S. cerevisiae mlh1 rad18 strain growth inhibition; at 50.0 µM; active compounds read high
Compounds without any hit were thinned out: in the full panel of roughly 79,000, 15% have a hit.
Below, each entry is listed alongside its reported growth inhibition.
API: value field is a number in %; no unit string.

# Molecule, growth inhibition [%]
data = [
    ("CC1OC2CC(=O)OC2C2=C1C(=O)c1c(O)cccc1C2=O (stereo unspecified)", 91.7),
]

What value of measured growth inhibition is listed for Cc1cc(N(CCC#N)CCC#N)ccc1/C(N=Nc1cccc([N+](=O)[O-])c1)=N/NC(=O)c1cc(Cl)ccc1O ?
31.9

Would you mind telling me what growth inhibition value was observed for Oc1ccc2ccc3ccccc3c2c1 ?
99.5

Tell me the measured growth inhibition of O=S(=O)(O)c1cc(N=Nc2ccc(O)c(O)c2)ccc1/C=C/c1ccc(N=Nc2ccc(O)c(O)c2)cc1S(=O)(=O)O , please.
75.4

Field request: growth inhibition | item: CCOC(=O)c1c(C)[nH]c(CO)c1C
65.5

Given the molecule O=C1c2ccccc2-c2ccccc2C(=O)C1(Br)Br , what is its reported growth inhibition?
96.4

----------
Assay: NCI Yeast Anticancer Drug Screen. Data for the cln2 rad14 strain (AID 165);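 also: 0% = growth equal to vehicle treated cultures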
Details: S. cerevisiae cln2 rad14 strain, at 5.0 µM (retest, dose inferred, filed as 0.5)
About 79,000 compounds went through this panel and 15% of them were active in at least one assay; those are over-represented in the sample as a whole. Active and inactive are the calls of the source. Cut-off read from the data, not from the text of the source: active = growth inhibition above about 70%; inactive = the rest.
Pick from 1.0 (active), 0.0 (inactive) when you respond.

Previously resolved entries follow.
# Compound, Label Value
rows = [
    ("CCOC(=O)/C=C/c1ccc([N+](=O)[O-])o1", 0.0),
    ("CC(C)Cc1ncc(CC(C)C)n(O)c1=O", 0.0),
    ("CC1=C(C(=O)Nc2ccccc2)C(c2cccc([N+](=O)[O-])c2)C(C(=O)Nc2ccccc2)=C(C)N1", 0.0),
]

GET /call?item= COC(=O)Nc1nc2ccc(C(=O)c3ccccc3)cc2[nH]1 returns the recorded outcome of this test.
0.0
